- Assayed Target: Human Cbl-b (residues 40-426) (Homo sapiens (Human))
- Procedure Details: Cbl-b SPR assay
- Assay type: binding
- Experimental Conditions: C-cbl SPR Kd vs Cbl-b SPR Kd
Class definitions on Fold of selectivity: bin A (below 5 ×), bin B (5 × to below 10 ×), bin C (10 × or more)

1. CCO[C@H]1C[C@@](c2cccc(N3Cc4c(cc(CNC5(C)CCC5)cc4C(F)(F)F)C3=O)c2)(c2nncn2C)C1	bin A
2. CO[C@H]1C[C@@](c2cc(NC3CC3)cc(N3Cc4c(cc(CNC5(C)CCC5)cc4C(F)(F)F)C3=O)c2)(c2nncn2C)C1	bin B

Hi, small favor: classify CCCN1CC(c2cc3c(c(C(F)(F)F)c2)CN(c2cccc([C@H](c4nncn4C)C4COC4)c2)C3=O)C1 by its Fold of selectivity when you get a moment.
bin A

Please report the category associated with CO[C@H]1C[C@](c2cccc(N3Cc4c(cc(CNC5CC5)cc4C(F)(F)F)C3=O)c2)(c2nncn2C)C1 , nothing else.
bin C

Into which bin does this molecule go? C[C@@H](CC#N)Nc1cc(C2(c3nncn3C)CC3(COC3)C2)cc(N2Cc3c(cc(CNC4(C)CCC4)cc3C(F)(F)F)C2=O)n1
bin B

---

- Assayed Target: c-Cbl (residues 47-435) (Homo sapiens (Human))
- Sequence (P22681 47-435): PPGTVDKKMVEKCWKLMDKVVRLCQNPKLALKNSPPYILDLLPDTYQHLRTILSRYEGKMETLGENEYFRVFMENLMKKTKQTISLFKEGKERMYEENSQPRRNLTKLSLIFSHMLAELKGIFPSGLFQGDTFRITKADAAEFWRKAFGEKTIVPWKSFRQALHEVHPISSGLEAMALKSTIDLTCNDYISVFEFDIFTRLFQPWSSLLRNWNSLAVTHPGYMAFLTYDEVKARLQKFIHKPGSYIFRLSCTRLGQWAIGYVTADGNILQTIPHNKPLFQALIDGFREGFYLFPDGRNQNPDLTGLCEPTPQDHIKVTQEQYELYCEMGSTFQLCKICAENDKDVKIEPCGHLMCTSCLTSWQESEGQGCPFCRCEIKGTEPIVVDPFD
pKd: −log10 of the molar value.
Threshold rule: pKd greater than or equal to 8 is 1.0; below that, 0.0.

1. Cn1cnnc1C1(c2cccc(N3Cc4c(cc(CNC5(C)CCC5)cc4C(F)F)C3=O)c2)CC2(COC2)C1	0.0
2. CC(C)[C@H]1CN(C)CCN1Cc1cc2c(c(C(F)F)c1)CN(c1cccc(C3(c4nncn4C)CC4(COC4)C3)c1)C2=O.O=CO.O=CO [Compound 198, formate]	0.0
3. CCO[C@H]1C[C@@](c2cccc(N3Cc4c(cc(CNC5(C)CCC5)cc4C(F)(F)F)C3=O)c2)(c2nncn2C)C1	0.0
4. CO[C@H]1C[C@](c2cccc(N3Cc4c(cc(CNC5CC5)cc4C(F)(F)F)C3=O)c2)(c2nncn2C)C1	0.0
5. Cn1cnnc1[C@H](c1cccc(N2Cc3c(cc(CNC4(C)CCC4)cc3C(F)(F)F)C2=O)c1)C1CCCC1	1.0

Textbook exercise: given the entry Cn1cnnc1[C@]1(c2cccc(N3Cc4c(cc(CNC5(C)CCC5)cc4C(F)(F)F)C3=O)c2)C[C@@H](CO)C1.O=CO , state whether its pKd is greater than or equal to 8.
0.0

Quick check: does Cn1cnnc1[C@]1(c2cccc(N3Cc4c(cc(CNC5(C)CCC5)cc4C(F)(F)F)C3=O)c2)C[C@@H](OCF)C1 have pKd greater than or equal to 8?
0.0

Is pKd at least 8? Consider COC[C@@H]1CC1(c1cccc(N2Cc3c(cc(CNC4(C)CCC4)cc3C(F)(F)F)C2=O)c1)c1nncn1C (single isomer, unassigned)
0.0

Check this compound for pKd at or above 8: Cn1cnnc1[C@H](c1cccc(N2Cc3c(cc([C@H](NC4(C)CCC4)C4CCC4)cc3C(F)(F)F)C2=O)c1)C1COC1 (single isomer, unassigned)
0.0

Quick check, pKd >= 8? CCNc1cc(C2(c3nncn3C)CC3(COC3)C2)cc(N2Cc3c(cc(CNC4(C)CCC4)cc3C(F)(F)F)C2=O)n1
1.0

Answer whether pKd of CCCNCc1cc2c(c(C(F)(F)F)c1)CN(c1cccc([C@]3(c4nncn4C)C[C@H](OC)C3)c1)C2=O is greater than or equal to 8.
0.0

---

- Assayed Target: Human Cbl-b (residues 40-426) (Homo sapiens (Human), UniProt Q13191)
- Sequence (Q13191 40-426): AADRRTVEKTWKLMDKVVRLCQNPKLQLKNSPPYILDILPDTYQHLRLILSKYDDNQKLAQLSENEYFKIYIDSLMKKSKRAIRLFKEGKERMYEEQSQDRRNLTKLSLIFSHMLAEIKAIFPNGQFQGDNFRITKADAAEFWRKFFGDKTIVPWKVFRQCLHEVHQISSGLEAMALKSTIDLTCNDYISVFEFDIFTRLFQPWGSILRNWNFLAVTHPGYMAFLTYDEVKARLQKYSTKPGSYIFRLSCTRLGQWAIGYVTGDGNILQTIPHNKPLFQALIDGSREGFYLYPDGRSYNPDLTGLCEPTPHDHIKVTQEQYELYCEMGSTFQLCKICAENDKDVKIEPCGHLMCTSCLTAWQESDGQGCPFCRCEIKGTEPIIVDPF
- Procedure Details: Cbl-b SPR assay
- Type: binding
- Experimental Conditions: C-cbl SPR Kd vs Cbl-b SPR Kd
Result Type: Fold of selectivity (×)
Could you give me the number in ×? Just the number is fine.

1) COC1CC2(C1)CC(c1cccc(N3Cc4c(cc(CNC5(C)CCC5)cc4C(F)(F)F)C3=O)c1)(c1nncn1C)C2 (stereo not drawn)	7.0
2) Cn1cnnc1[C@]1(c2cccc(N3Cc4c(cc(CNC5(C)CCC5)cc4C(F)(F)F)C3=O)c2)C[C@H](O)C1	5.3
3) C[C@H](NC1(C)CCC1)c1cc2c(c(C(F)(F)F)c1)CN(c1cccc(C3(c4nncn4C)CC(F)(F)C3)c1)C2=O (single isomer, unassigned)	6.3

Fill in: Fold of selectivity on Human Cbl-b (residues 40-426) (Homo sapiens (Human), UniProt Q13191), entry CO[C@H]1C[C@](c2cc(C)cc(N3Cc4c(cc(CNC5(C)CCC5)cc4C(F)(F)F)C3=O)c2)(c2nncn2C)C1
2.3

Report value only: Fold of selectivity, Human Cbl-b (residues 40-426) (Homo sapiens (Human), UniProt Q13191), CC(C)[C@H]1CN(C)CCN1Cc1cc2c(c(C(F)(F)F)c1)CN(c1cc([C@]3(c4nncn4C)C[C@@H](C)C3)cc(NC3CCCC3)n1)C2=O
8.7

Provide the reported Fold of selectivity (system: Human Cbl-b (residues 40-426) (Homo sapiens (Human), UniProt Q13191)) for CCOc1cc(N2Cc3c(cc(CNC4(C)CCC4)cc3C(F)(F)F)C2=O)cc([C@]2(c3nncn3C)C[C@@H](C)C2)c1
2.0

State the measured Fold of selectivity (Human Cbl-b (residues 40-426) (Homo sapiens (Human), UniProt Q13191)) of Cn1cnnc1C1(c2cccc(N3Cc4c(cc(CNC5(C)CCC5)cc4C(F)(F)F)C3=O)c2)CC2(CC(F)(F)C2)C1
19

Report its Fold of selectivity with Human Cbl-b (residues 40-426) (Homo sapiens (Human), UniProt Q13191) as the test system: Cn1cnnc1[C@]1(c2cccc(N3Cc4c(cc(CNC5(C)CCC5)cc4C(F)(F)F)C3=O)c2)C[C@](C)(O)C1
9.0

Provide measured Fold of selectivity on Human Cbl-b (residues 40-426) (Homo sapiens (Human), UniProt Q13191) for Cn1cnnc1[C@@H](c1cccc(N2Cc3c(cc(CNC4(C)CCC4)cc3C(F)(F)F)C2=O)c1)[C@H]1C[C@H](C)C1 (single isomer, unassigned) please.
14

---

c-Cbl (residues 47-435) (Homo sapiens (Human)): reported pKd for various compounds.
Note on units: pKd is unitless, being -log10 of a concentration expressed in mol/L.

1) CO[C@H]1C[C@](c2cccc(N3Cc4c(cc(CN[C@@H]5C[C@H]5C(C)(F)F)cc4C(F)(F)F)C3=O)c2)(c2nncn2C)C1 (single isomer, unassigned) [Compound 506]	6.35
2) Cn1cnnc1[C@]1(c2cccc(N3Cc4c(cc(CNC5(C)CCC5)cc4C(F)(F)F)C3=O)c2)C[C@H](C#N)C1 [Compound 25]	7.66
3) Cn1cnnc1C1(c2cccc(N3Cc4c(cc(CNC5(C)CCC5)cc4C(F)(F)F)C3=O)c2)CN(S(C)(=O)=O)C1 [Compound 113]	4.47
4) CO[C@H]1C[C@](c2cc(N[C@H](C)CC#N)cc(N3Cc4c(cc(CNC5(C)CCC5)cc4C(F)(F)F)C3=O)c2)(c2nncn2C)C1 (single isomer, unassigned) [Compound 221]	8.12

# return pKd of Cn1cnnc1C1(c2cccc(N3Cc4c(cc([C@H](CO)NC5(C)CCC5)cc4C(F)(F)F)C3=O)c2)CCC1 (single isomer, unassigned) [Compound 148] (system: c-Cbl (residues 47-435) (Homo sapiens (Human)))
7.20

Retrieve pKd on c-Cbl (residues 47-435) (Homo sapiens (Human)); query CC(C)[C@H]1CN(C)CCN1Cc1cc2c(c(C(F)(F)F)c1)CN(c1cc([C@]3(c4nncn4C)C[C@H](C)C3)cc(OC3CCCC3)n1)C2=O (single isomer, unassigned) [Compound 73]
8.52

---

- Assayed Target: Cbl-b (Homo sapiens (Human))
- Sequence (Q13191 40-426): as above
- Procedure Details: Cbl-b LCK Ub TR-FRET assay (Cbl-b Lck HTRF)
- Type: biochemical
- Experimental Conditions: ratio C-cbl Lck HTRF IC50 / Cbl-b Lck HTRF IC50
Result Type: fold-selectivity (Cbl-b over C-cbl) (x)
Answer format: numeric, x implied, no suffix.

Solved cases (3 shown):
1) Cn1cnnc1[C@H](c1cccc(N2Cc3c(cc(CNC4(C)CCC4)cc3C(F)(F)F)C2=O)c1)C1CC(OC(F)F)C1 (single isomer, unassigned) [Compound 390]	1.0
2) CO[C@H]1C[C@](c2cccc(N3Cc4c(cccc4C(F)(F)F)C3=O)c2)(c2nncn2C)C1	5.6
3) Cn1cnnc1[C@]1(c2cccc(N3Cc4c(cc(CNC5(C)CCC5)cc4C(F)(F)F)C3=O)c2)C[C@@H](CF)C1	1.1

Please look at this compound and report its fold-selectivity (Cbl-b over C-cbl): CO[C@@](c1cccc(N2Cc3c(cc(CNC4(C)CCC4)cc3C(F)(F)F)C2=O)c1)(c1nncn1C)C1CCC1 (single isomer, unassigned)
1.0

Query fold-selectivity (Cbl-b over C-cbl) for Cn1cnnc1C(c1cccc(N2Cc3c(cc(CNC4(C)CCC4)cc3C(F)(F)F)C2=O)c1)[C@H]1C[C@@H](CC#N)C1 (single isomer, unassigned) [Compound 362]
6.3

Provide one value: measured fold-selectivity (Cbl-b over C-cbl) of C=C[C@@H](C)Nc1cc(N2Cc3c(cc(CNC4(C)CCC4)cc3C(F)(F)F)C2=O)cc([C@]2(c3nncn3C)C[C@H](OC)C2)c1 (single isomer, unassigned)
2.7

Name the recorded fold-selectivity (Cbl-b over C-cbl) of the compound listed here: CO[C@H]1C[C@](c2cccc(N3Cc4c(cc(CN5CCN(C)C[C@@H]5C(C)C)cc4C(F)(F)F)C3=O)c2)(c2nncn2C)C1
3.7
